# System: BT-474 cell line
# measurement.notes: Synergy effect study on cell proliferation (Example 2), single agents and 6x6 combo matrix
# Assay type: cell-based
# setup.conditions: Homo sapiens, 72 h; BT-474, single compound, 3 days
pIC50: −log10 of the molar value.
result.type: pIC50

Worked set:
| substance.smiles | pIC50 |
| --- | --- |
| CC(=O)c1c(C)c2cnc(Nc3ccc(N4CCNCC4)cn3)nc2n(C2CCCC2)c1=O | < 5.30 |
| CC(=O)Nc1cccc(-n2c(=O)n(C3CC3)c(=O)c3c(Nc4ccc(I)cc4F)n(C)c(=O)c(C)c32)c1 | < 5.00 |
| C=CC(=O)N1CCC(Oc2cc3c(Nc4ccc(Cl)c(Cl)c4F)ncnc3cc2OC)CC1 | > 8.82 |
| Nc1nc2[nH]cc(CCc3ccc(C(=O)N[C@@H](CCC(=O)O)C(=O)O)cc3)c2c(=O)[nH]1 | < 5.00 |

Now let's try a different one.
Exam item: Jot down pIC50 (BT-474 cell line) of "N#Cc1ccc(C(c2ccc(C#N)cc2)n2cncn2)cc1" .
Marked response: < 5.00

* * *

# Tested on: Calu-3 cell line
# measurement.notes: Synergy effect study on cell proliferation (Example 2), single agents and 6x6 combo matrix
# Type: cell-based
# setup.conditions: Calu-3, single compound, 3 days
Reported Max inh. values for a set of molecules
Use % as the unit, but write only the number.

Exam item: State its Max inh.: "CO[C@H]1C[C@@H]2CC[C@@H](C)[C@@](O)(O2)C(=O)C(=O)N2CCCC[C@H]2C(=O)O[C@H]([C@H](C)C[C@@H]2CC[C@@H](OC(=O)C(C)(CO)CO)[C@H](OC)C2)CC(=O)[C@H](C)/C=C(\C)[C@@H](O)[C@@H](OC)C(=O)[C@H](C)C[C@H](C)/C=C/C=C/C=C/1C"
Marked response: 58.19

Exam item: State its Max inh.: "Nc1nc2[nH]cc(CCc3ccc(C(=O)N[C@@H](CCC(=O)O)C(=O)O)cc3)c2c(=O)[nH]1"
Marked response: 49.78

Exam item: State its Max inh.: "CC(=O)Nc1cccc(-n2c(=O)n(C3CC3)c(=O)c3c(Nc4ccc(I)cc4F)n(C)c(=O)c(C)c32)c1"
Marked response: 89.69

Exam item: State its Max inh.: "CNC(=O)c1cc(Oc2ccc(NC(=O)Nc3ccc(Cl)c(C(F)(F)F)c3)cc2)ccn1"
Marked response: 64.29

* * *

# Test system: BT-474 cell line
# measurement.notes: Synergy effect study on cell proliferation (Example 2), single agents and 6x6 combo matrix
# Type: cell-based
# setup.conditions: BT-474, single compound, 3 days
result.type: IC50

Exam item: State its IC50: N.N.[Cl][Pt][Cl] [Cisplatin]
Marked response: > 100 µM

* * *

# System: BT-474 cells
# measurement.notes: Cell growth inhibition assay (sulforhodamine B), single agents and combinations
# Type: cell-based
# setup.conditions: Homo sapiens, BT-474, 72 h, BT-474, single agent, 3 days
result.type: GI50 (nM)

[P] CCC1=C[C@@H]2CN(C1)Cc1c([nH]c3ccccc13)[C@@](C(=O)OC)(c1cc3c(cc1OC)N(C)[C@H]1[C@@](O)(C(=O)OC)[C@H](OC(C)=O)[C@]4(CC)C=CCN5CC[C@]31[C@@H]54)C2 [Vinorelbine]
[Q] CC(=O)O[C@H]1C(=O)[C@@]2(C)[C@H]([C@H](OC(=O)c3ccccc3)[C@]3(O)C[C@H](OC(=O)[C@H](O)[C@@H](NC(=O)c4ccccc4)c4ccccc4)C(C)=C1C3(C)C)[C@]1(OC(C)=O)CO[C@@H]1C[C@@H]2O [Paclitaxel]
[R] O=c1[nH]cc(F)c(=O)[nH]1 [5-FU, Fluorouracil]
[S] C=CC(=O)N1CCC(Oc2cc3c(Nc4ccc(Cl)c(Cl)c4F)ncnc3cc2OC)CC1 [Poziotinib]
Exam item: Sort the compounds on GI50; start with the lowest figure. Return value: ordered labels per request.
Marked response: S, Q, P, R
(S: 0.5 nM, Q: 1 nM, P: 2.3 nM, R: 9000 nM)
